Data origin, for the record: PubChem BioAssay AID1919006

# reported viability, T/C; entries follow
Tested on: 885512-296-R-J2-PDC complex spheroid growth, % test/control
MEASUREMENT DESCRIPTION: Anticancer human tumor 885512-296-R-J2-PDC patient-derived breast carcinoma cell line growth inhibition [AhR]
SETUP CONDITIONS: second compound 3.16 µM; first compound 0.01 µM; stronger effect = lower value
Answer in %, number only, no unit symbol.

Give a short answer stating reported viability, T/C for CC[C@@]1(O)C(=O)OCc2c1cc1n(c2=O)Cc2cc3c(CN(C)C)c(O)ccc3nc2-1 + CC(CO)NC(=O)c1cc(-c2ccc(Cl)cc2)nn(-c2cnn(C)c2)c1=O .
43

Give a short answer stating reported viability, T/C for Nc1ncn(C2CC(O)C(CO)O2)c(=O)n1 (configuration not stated) + Cc1ccccc1N=Nc1ccc(NC(=O)c2ccnn2C)c(C)c1 .
79.2

Give a short answer stating reported viability, T/C for CC1COCCN1c1cc(-c2ccnn2C)c2ccnc(-c3ccn[nH]3)c2n1 (configuration not stated) + CC(CO)NC(=O)c1cc(-c2ccc(Cl)cc2)nn(-c2cnn(C)c2)c1=O .
87.7

Give a short answer stating reported viability, T/C for CC[C@@]1(O)C(=O)OCc2c1cc1n(c2=O)Cc2cc3c(CN(C)C)c(O)ccc3nc2-1 + Cc1cncc(-c2nc(NCCc3c[nH]c4ccccc34)c3ncn(C(C)C)c3n2)c1 .
27.3

Give a short answer stating reported viability, T/C for Cn1ncnc1C1c2n[nH]c(=O)c3cc(F)cc(c23)NC1c1ccc(F)cc1 (configuration not stated) + Cc1cncc(-c2nc(NCCc3c[nH]c4ccccc34)c3ncn(C(C)C)c3n2)c1 .
54.5

Give a short answer stating reported viability, T/C for CC[C@@]1(O)C(=O)OCc2c1cc1n(c2=O)Cc2cc3c(CN(C)C)c(O)ccc3nc2-1 + Cc1ccccc1N=Nc1ccc(NC(=O)c2ccnn2C)c(C)c1 .
26.5

Give a short answer stating reported viability, T/C for Cn1ncnc1C1c2n[nH]c(=O)c3cc(F)cc(c23)NC1c1ccc(F)cc1 (configuration not stated) + Cc1ccccc1N=Nc1ccc(NC(=O)c2ccnn2C)c(C)c1 .
83.5

* * *

Tested on: 885512-296-R-J2-PDC complex spheroid growth, % test/control
MEASUREMENT DESCRIPTION: Anticancer human tumor 885512-296-R-J2-PDC cell line growth inhibition [AhR];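 also: spheroids exposed to compounds for seven days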
SETUP CONDITIONS: second compound 10 µM; first compound 1 µM; stronger effect = lower value
Description: Multicellular complex tumor spheroid response to aryl hydrocarbon receptor antagonists in combination with a variety of drugs and investigational agents in selected tumor cell lines […] Compounds. […] If the clinical Cmax for an agent had not been determined, the highest concentration tested was 10 microM (Table 1). […]
READOUT KIND: viability, T/C (%)
Answer in %, number only, no unit symbol.

Reference set (4 entries):
COMPOUND: CC(C)c1c(-c2ccccc2)nc2c(C#N)c[nH]n2c1=O + CC(CO)NC(=O)c1cc(-c2ccc(Cl)cc2)nn(-c2cnn(C)c2)c1=O
READOUT UNIT: %
VALUE MEASURED: 102
--
COMPOUND: O=C(c1cc(Cc2n[nH]c(=O)c3ccccc23)ccc1F)N1CCN(C(=O)C2CC2)CC1 + Cc1cncc(-c2nc(NCCc3c[nH]c4ccccc34)c3ncn(C(C)C)c3n2)c1
READOUT UNIT: %
VALUE MEASURED: 17.1
--
COMPOUND: O=C(c1cc(Cc2n[nH]c(=O)c3ccccc23)ccc1F)N1CCN(C(=O)C2CC2)CC1 + Cc1ccccc1N=Nc1ccc(NC(=O)c2ccnn2C)c(C)c1
READOUT UNIT: %
VALUE MEASURED: 70.8
--
COMPOUND: O=C(C=Cc1cccc(S(=O)(=O)Nc2ccccc2)c1)NO + Cc1cncc(-c2nc(NCCc3c[nH]c4ccccc34)c3ncn(C(C)C)c3n2)c1
READOUT UNIT: %
VALUE MEASURED: 16

Give a short answer stating reported viability, T/C for Nc1ccn(C2OC(CO)C(O)C2(F)F)c(=O)n1 (configuration not stated) + Cc1ccccc1N=Nc1ccc(NC(=O)c2ccnn2C)c(C)c1 .
4.62

Give a short answer stating reported viability, T/C for CC1COCCN1c1cc(-c2ccnn2C)c2ccnc(-c3ccn[nH]3)c2n1 (configuration not stated) + Cc1ccccc1N=Nc1ccc(NC(=O)c2ccnn2C)c(C)c1 .
2.57

Give a short answer stating reported viability, T/C for Nc1ccccc1NC(=O)c1ccc(CNC(=O)OCc2cccnc2)cc1 + CC(CO)NC(=O)c1cc(-c2ccc(Cl)cc2)nn(-c2cnn(C)c2)c1=O .
34

Give a short answer stating reported viability, T/C for Nc1ncn(C2CC(O)C(CO)O2)c(=O)n1 (configuration not stated) + CC(CO)NC(=O)c1cc(-c2ccc(Cl)cc2)nn(-c2cnn(C)c2)c1=O .
62.1

Give a short answer stating reported viability, T/C for COc1cc(Nc2ncc3c(n2)-c2ccc(Cl)cc2C(c2c(F)cccc2OC)=NC3)ccc1C(=O)O + Cc1cncc(-c2nc(NCCc3c[nH]c4ccccc34)c3ncn(C(C)C)c3n2)c1 .
14.8

Give a short answer stating reported viability, T/C for CC1COCCN1c1cc(C2(S(C)(=N)=O)CC2)nc(-c2ccnc3[nH]ccc23)n1 (configuration not stated) + CC(CO)NC(=O)c1cc(-c2ccc(Cl)cc2)nn(-c2cnn(C)c2)c1=O .
38.3

Give a short answer stating reported viability, T/C for CC1(C)CCC(CN2CCN(c3ccc(C(=O)NS(=O)(=O)c4ccc(NCC5CCOCC5)c([N+](=O)[O-])c4)c(Oc4cnc5[nH]ccc5c4)c3)CC2)=C(c2ccc(Cl)cc2)C1 + Cc1ccccc1N=Nc1ccc(NC(=O)c2ccnn2C)c(C)c1 .
44.6

Give a short answer stating reported viability, T/C for COc1ccc([C@@H](O)c2cc(-c3ncnc4cc(N5CCOCC5)ccc34)c(F)cc2Cl)nn1 + Cc1ccccc1N=Nc1ccc(NC(=O)c2ccnn2C)c(C)c1 .
48.3
